Molecular target: Mitogen-activated protein kinase 14 (Homo sapiens, UniProt Q16539)
Sequence (Q16539 whole entry): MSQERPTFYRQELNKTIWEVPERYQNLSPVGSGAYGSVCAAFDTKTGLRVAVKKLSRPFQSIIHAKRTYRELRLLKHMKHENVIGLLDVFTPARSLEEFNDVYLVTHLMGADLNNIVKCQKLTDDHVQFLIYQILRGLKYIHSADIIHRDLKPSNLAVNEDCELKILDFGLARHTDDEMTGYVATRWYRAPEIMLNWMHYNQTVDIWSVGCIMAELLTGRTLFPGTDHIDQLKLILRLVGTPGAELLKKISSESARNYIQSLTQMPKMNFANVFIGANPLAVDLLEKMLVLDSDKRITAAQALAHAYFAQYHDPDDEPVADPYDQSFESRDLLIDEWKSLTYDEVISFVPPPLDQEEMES
Test: Inhibition of p38alpha at 30 uM by microfluidic mobility shift assay
parameter: inhibition (%)

[P] Cc1cc2nc(-c3ccccc3)nc(N)c2c(=O)[nH]1
[Q] Nc1n[nH]c2cc(CC3CCNCC3)[nH]c(=O)c12
[R] COc1ccc(S(=O)(=O)Nc2nn(C)c3cc(C)[nH]c(=O)c23)c(OC)c1
[S] COC(=O)CCc1c(C)[nH]c(=O)c2c(N)nn(C)c12
Would you mind ranking these compounds by ascending inhibition? Present the labels in the sequence the task asks for.
R, S, Q, P

[a] Cn1nc2c3c(nc(-c4ccccc4)cc31)NCC(=O)N2
[b] CC(=O)Nc1nn(C)c2cc(-c3ccc(N4CCN(C)CC4)cc3)[nH]c(=O)c12
Sorting by inhibition in descending order, would a or b appear first? Your choice should be expressed through its label.
a
(a: 6%, b: 3%)

[I] O=S(=O)(NCCNC/C=C/c1ccc(Br)cc1)c1cccc2cnccc12
[II] Cc1nc(N)c2c(=O)[nH]c(C)cc2n1
[III] COc1ccccc1-c1cc2nn(-c3ccccc3)c(N)c2c(=O)[nH]1
Kindly order the items shown according to inhibition, from the highest value down. Present the labels in the sequence the task asks for.
III, I, II
